ASSAY_TEXT: absolute recovery over mixed-bed multilayer solid-phase extraction; higher = better recovery
APPLIED_CONDITIONS: wastewater influent; enrichment method: SPE
Outcome: criterion met for absolute recovery of at least 90%; criterion not met for anything lower.

Q: Please tell me: is the compound CCNc1nc(O)nc(NCC)n1 [Simazin-2-hydroxy] at or over 90% in terms of absolute recovery?
A: criterion not met

Q: Please tell me: is the compound CC(C)OC(=O)NC(C(=O)NC(C)c1nc2ccc(F)cc2s1)C(C)C (stereo not given) [Benthiavalicarb-isopropyl] at or over 90% in terms of absolute recovery?
A: criterion met

Q: Please tell me: is the compound Nc1ccc(S(=O)(=O)[N-]c2nccs2)cc1 [Sulfathiazol] at or over 90% in terms of absolute recovery?
A: criterion met

Q: Please tell me: is the compound O=C(Nc1ccc(F)cc1F)c1cccnc1Oc1cccc(C(F)(F)F)c1 [Diflufenican] at or over 90% in terms of absolute recovery?
A: criterion not met

Q: Please tell me: is the compound COc1cc2[nH+]c(N3CCN(C(=O)C4COc5ccccc5O4)CC3)nc(N)c2cc1OC (stereo not given) [Doxazosin] at or over 90% in terms of absolute recovery?
A: criterion not met

Q: Please tell me: is the compound O=C([O-])C(F)(F)C(F)(F)C(F)(F)F [PFBA] at or over 90% in terms of absolute recovery?
A: criterion not met

Q: Please tell me: is the compound CC(=O)N1CCN(c2ccc(OCC3COC(Cn4cc[nH+]c4)(c4ccc(Cl)cc4Cl)O3)cc2)CC1 (stereo not given) [Ketoconazol] at or over 90% in terms of absolute recovery?
A: criterion not met

Q: Please tell me: is the compound CCOC(=O)C1=NN(c2ccc(Cl)cc2Cl)C(C)(C(=O)OCC)C1 (stereo not given) [Mefenpyr-diethyl] at or over 90% in terms of absolute recovery?
A: criterion met

Q: Please tell me: is the compound Cn1nnc2ccccc21 [1-Methyl-Benzotriazol] at or over 90% in terms of absolute recovery?
A: criterion met

Q: Please tell me: is the compound COc1cc2[nH+]c(N(C)CCCNC(=O)C3CCCO3)nc(N)c2cc1OC (stereo not given) [Alfuzosin] at or over 90% in terms of absolute recovery?
A: criterion met

Q: Please tell me: is the compound FC(F)(F)c1cccc(N2CC[NH2+]CC2)c1 [1-(3-Trifluoromethylphenyl)-piperazine] at or over 90% in terms of absolute recovery?
A: criterion not met

Q: Please tell me: is the compound CC(=O)N(C)c1ccc(N)cc1 [N-(4-Aminophenyl)-N-methyl-acetamid] at or over 90% in terms of absolute recovery?
A: criterion not met

Q: Please tell me: is the compound O=C(NCC(O)CO)c1c(I)c(C(=O)NCC(O)CO)c(I)c(N(CCO)C(=O)CO)c1I (stereo not given) [Ioversol] at or over 90% in terms of absolute recovery?
A: criterion not met

Q: Please tell me: is the compound CCC1(c2ccccc2)C(=O)NCNC1=O [Primidon] at or over 90% in terms of absolute recovery?
A: criterion met

Q: Please tell me: is the compound CC12CCC(=O)C=C1CCC1C2C(O)CC2(C)C1CCC2(O)C(=O)CO (stereo not given) [Hydrocortison] at or over 90% in terms of absolute recovery?
A: criterion met

Q: Please tell me: is the compound CC1(C)CC(O)CC(C)(C)[NH+]1CCO [4-Hydroxy-1-(2-hydroxyethyl)-2-2-6-6-tetramethylpiperidine] at or over 90% in terms of absolute recovery?
A: criterion not met

Q: Please tell me: is the compound COCC(=O)Nc1c(I)c(C(=O)NCC(O)CO)c(I)c(C(=O)N(C)CC(O)CO)c1I (stereo not given) [Iopromid] at or over 90% in terms of absolute recovery?
A: criterion not met

Q: Please tell me: is the compound C[N+]1([O-])CCN2c3ccccc3Cc3ccccc3C2C1 (stereo not given) [Mianserin-N-Oxide] at or over 90% in terms of absolute recovery?
A: criterion not met
